Value source: the supplement of paper PMC9112550

tested on: Escherichia coli TOP10; experiment: shrunken log2 fold change of peptide-encoding DNA abundance (4.5 h post-induction vs induction); higher = less antimicrobial activity (less host growth inhibition); conditions: time post-induction: 4.5 h; library: site-saturation at positions 5, 18, 19, 20;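 note: peptides expressed intracellularly from a pBAD plasmid library in pooled LB shake-flask culture, induced with 0.3% L-arabinose, DNA abundance read by NGS, three biological replicates, DESeq2 with apeglm shrinkage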
Listing of entries alongside the reported shrunken log2 fold change.
Form: value (number only, do not type unit).

Illustrative cases are given below, each with its answer.
INSERT INTO results (sequence, quantitykind, assayvalue) VALUES
  ('RRIRARPPRLPRPRPRPDYGPRP', 'shrunken log2 fold change', -0.679),
  ('RRIRARPPRLPRPRPRPSCEPRP', 'shrunken log2 fold change', 0.128),
  ('RRIRDRPPRLPRPRPRPHKQPRP', 'shrunken log2 fold change', 0.00319),
  ('RRIRMRPPRLPRPRPRPFSAPRP', 'shrunken log2 fold change', 0.138),
  ('RRIRTRPPRLPRPRPRPNYVPRP', 'shrunken log2 fold change', -0.35);

Task: Given the sequence RRIRFRPPRLPRPRPRPEDTPRP , write its reported shrunken log2 fold change.
Result: 0.144

Task: Given the sequence RRIRQRPPRLPRPRPRPLDRPRP , write its reported shrunken log2 fold change.
Result: 0.0981

Task: Given the sequence RRIRQRPPRLPRPRPRPDVEPRP , write its reported shrunken log2 fold change.
Result: -0.0335

Task: Given the sequence RRIRYRPPRLPRPRPRPCKRPRP , write its reported shrunken log2 fold change.
Result: -0.0961

Task: Given the sequence RRIRKRPPRLPRPRPRPGIGPRP , write its reported shrunken log2 fold change.
Result: 0.39

Task: Given the sequence RRIRCRPPRLPRPRPRPPWPPRP , write its reported shrunken log2 fold change.
Result: 0.54
